- System: carrageenin-induced leakage of the pigment, dorsal skin
- TEST: Anti-inflammatory activity for topical route (carrageenin, leakage of pigment in dorsal skin)
- Format: in vivo, rat (Wistar-strain)
- CONDITION SET: 1% in polyethylene glycol 300, percent inhibition divided by that of ibuprofen
PROPERTY NAME: anti-inflammatory effect, topical (relative inhibition, ibuprofen = 1.0)

Consider the worked cases shown below.
{"columns": ["COMPOUND", "EXPERIMENTAL RESULT"],
 "data": [
  ["CC(C)Cc1ccc(C(C)C(=O)OCc2cccnc2)cc1 (centres unmarked)", 1.7],
  ["CC(C)Cc1ccc(C(C)C(=O)OCCO)cc1 (centres unmarked)", 1.9],
  ["COCCOC(=O)C(C)c1ccc(CC(C)C)cc1 (centres unmarked)", 1.2]
]}

Kindly review the next compound as well.
Qu. anti-inflammatory effect, topical (relative inhibition, ibuprofen = 1.0) for CC(C)Cc1ccc(C(C)C(=O)OCCN(C)C)cc1 (centres unmarked) ?
Ans. 2.0
